The measurements presented in this section are drawn from patent US20230278972A1.

Entries annotated with measured Plant response rating, Wheat
tested on: wheat (Triticum aestivum); assay: Test A1 postemergence, wheat; format: in vivo; conditions: Postemergence, 125 g ai/ha; 0 to 100 scale
measured parameter: Plant response rating, Wheat

>>> measured_value("C#CCN(C)C(=O)c1cc(NS(=O)(=O)C(F)(F)F)c(Cl)c(F)c1C [Compound 337]")
30
>>> measured_value("Cc1c(C(=O)N2CCCCC2)cc(NS(=O)(=O)C(F)(F)F)c(Cl)c1F [Compound 333]")
30
>>> measured_value("CCc1cc(C)c(C2=NOC3(CCCC3)C2)cc1NS(=O)(=O)C(F)(F)F [Compound 311]")
0
>>> measured_value("Cc1c(NS(=O)(=O)C(F)(F)F)cc(C(=O)N2CCC(C)CC2)c(C)c1C [Compound 366]")
20
>>> measured_value("Cc1cc(C)c(N(COC(=O)C(C)(C)C)S(=O)(=O)C(F)(F)F)cc1C(=O)N1CCC(C)CC1 [Compound 353]")
50
>>> measured_value("CCOC(=O)N(c1cc(C(=O)N2CCCCC2)c(C)c(C)c1C)S(=O)(=O)C(F)(F)F [Compound 330]")
30
>>> measured_value("Cc1cc(C)c(N(C(=O)OCC(C)C)S(=O)(=O)C(F)(F)F)cc1C1=NOC2CCCC12 (centres unmarked) [Compound 299]")
70
>>> measured_value("COC(=O)OCN(c1cc(C2=NOC3CCCC23)c(C)cc1C)S(=O)(=O)C(F)(F)F (centres unmarked) [Compound 315]")
70
>>> measured_value("Cc1c(C2=NO[C@@H]3CCC[C@H]23)cc(N(COC(=O)C(C)(C)C)S(=O)(=O)C(F)(F)F)c(C)c1C [Compound 336]")
0
>>> measured_value("COC1CCN(C(=O)c2cc(N(COC(=O)C(C)(C)C)S(=O)(=O)C(F)(F)F)c(C)c(C)c2C)CC1 [Compound 370]")
20
>>> measured_value("Cc1cc(C)c(N(COC(=O)C(C)(C)C)S(=O)(=O)C(F)(F)F)cc1C1=NOC2OCCC12 (centres unmarked) [Compound 352]")
50
>>> measured_value("CCc1cc(C)c(NS(=O)(=O)C(F)(F)F)cc1C1=NOC2CCCC12 (centres unmarked) [Compound 305]")
60
>>> measured_value("CCOC(=O)N(c1cc(C(=O)N2CCOCC2)c(C)c(C)c1C)S(=O)(=O)C(F)(F)F [Compound 325]")
50
>>> measured_value("Cc1cc(C)c(C2=NOC3(C)CCCC23)cc1NS(=O)(=O)C(F)(F)F (centres unmarked) [Compound 340]")
70
>>> measured_value("Cc1cc(C)c(C2=NOC(OCC(C)C)C2)cc1NS(=O)(=O)C(F)(F)F (centres unmarked) [Compound 322]")
30
>>> measured_value("CCC1ON=C(c2cc(N(C(=O)OCC(C)C)S(=O)(=O)C(F)(F)F)c(C)cc2C)C1CC (centres unmarked) [Compound 345]")
60
>>> measured_value("COC1CCN(C(=O)c2cc(NS(=O)(=O)C(F)(F)F)c(C)c(C)c2C)CC1 [Compound 367]")
20
>>> measured_value("Cc1cc(C)c(C2=NOC3CCCCCC23)cc1NS(=O)(=O)C(F)(F)F (centres unmarked) [Compound 292]")
70
>>> measured_value("COc1cc(C)c(C2=NOC3(CCCC3)C2)cc1NS(=O)(=O)C(F)(F)F [Compound 304]")
20
>>> measured_value("Cc1cc(C)c(C2=NOC3OCCCC23)cc1NS(=O)(=O)C(F)(F)F (centres unmarked) [Compound 372]")
70
>>> measured_value("Cc1c(C(=O)N2CCC(F)CC2)cc(N(COC(=O)C(C)(C)C)S(=O)(=O)C(F)(F)F)c(C)c1C [Compound 361]")
20
>>> measured_value("CCOC(=O)N(c1cc(C(=O)N2CCSCC2)c(C)c(C)c1C)S(=O)(=O)C(F)(F)F [Compound 286]")
20
>>> measured_value("Cc1cc(C)c(N(COC(=O)C(C)(C)C)S(=O)(=O)C(F)(F)F)cc1C1=NOC2COCC12 (centres unmarked) [Compound 301]")
60
